Attribution: patent US11613527B2

assay: Solubility after 24 hrs in Fasted State Simulated Intestinal Fluid (FaSSIF); type: physicochemical; conditions: Fasted State Simulated Intestinal Fluid (FaSSIF), thermodynamic from solid, 24 hrs at 37° C., nominal concentration 1 mg/mL (as free base)
Experimental Readout: solubility at 24 h (mg/mL)

>>> value_reported("COCc1nn(Cc2ccc3c(c2)CCN(C(C)C)CC3)cc1C(=O)NCc1c(-n2cc(C)nn2)ccc(OC)c1F")
0.73

1 = CCN1CCc2ccc(Cn3cc(C(=O)NCc4c(-n5ccc(C#N)n5)ccc(OC)c4F)c(COC)n3)cc2C1
2 = COCc1nn(Cc2ccc3ncccc3c2)cc1C(=O)NCc1c(-n2cnnn2)ccc(OC)c1F [RC3, reference compound]
Problem: Given the listed records, identify the one among 1 and 2 with higher solubility at 24 h. # answer = label of selected item
Solution: 1
(1: 0.96 mg/mL, 2: 0.02 mg/mL)
